Measurement record for Aspergillus fumigatus; quantity recorded: MIC.
Give bare numbers, in µg/mL.

Each of the following entries comes with a recorded value; kindly state MIC for each.
1. CC(=Cc1ccc(OC(=O)Nc2ccc(C)cc2)cc1)[N+](=O)[O-] [drawing 13]
2. CC(=Cc1ccc(OC(=O)Nc2ccccc2)cc1)[N+](=O)[O-] [drawing 17]
3. CC(=Cc1ccc(O)c(Cl)c1)[N+](=O)[O-] [drawing 20]
4. CC(=Cc1ccc(Oc2ncc([N+](=O)[O-])s2)cc1)[N+](=O)[O-] [drawing 19]
5. CC(=Cc1cccc(O)c1)[N+](=O)[O-] [drawing 18]
6. CC(=Cc1ccc(OC(=O)Nc2ccc(Br)cc2)cc1)[N+](=O)[O-] [drawing 14]
7. CCCCNC(=O)Oc1ccc(C=C(C)[N+](=O)[O-])cc1 [drawing 15]
8. CC(=Cc1ccc(OC(=O)Nc2ccc(Br)cc2)c(Cl)c1)[N+](=O)[O-] [drawing 22]

Response line:
[12.5, 6.25, 6.25, 1.56, 6.25, 12.5, 6.25, 6.25]

Prompt line: Fill in the blank: the reported MIC of O=[N+]([O-])C=Cc1cc(Cl)ccc1O [drawing 21] is ____.
Response line: 12.5

###

# Tested on: Phialophora jeanselmei
Exercise: state measured MIC for each of the molecules provided.
One number for each entry, in µg/mL.

Worked cases, answers included:
[
  {
    "MOLECULE": "CC(=Cc1ccc(OC(=O)Nc2ccc(Br)cc2)cc1)[N+](=O)[O-] [drawing 14]",
    "REPORTED_VALUE": 1.56
  },
  {
    "MOLECULE": "CC(=Cc1cccc(O)c1)[N+](=O)[O-] [drawing 18]",
    "REPORTED_VALUE": 3.12
  },
  {
    "MOLECULE": "CCCCNC(=O)Oc1ccc(C=C(C)[N+](=O)[O-])cc1 [drawing 15]",
    "REPORTED_VALUE": 0.78
  },
  {
    "MOLECULE": "CC(=Cc1ccc(OC(=O)NC2CCCCC2)cc1)[N+](=O)[O-] [drawing 16]",
    "REPORTED_VALUE": 6.25
  }
]

Next molecule, MIC to be filled in.
Prompt line: What value of MIC has been recorded for this entry: CC(=Cc1ccc(Oc2ncc([N+](=O)[O-])s2)cc1)[N+](=O)[O-] [drawing 19]
Response line: 0.39

###

# Staph. aureus: MIC values follow
Give bare numbers, in µg/mL.

Use these answered entries as a reference point.
[
  {
    "MOLECULE": "CC(=Cc1ccc(OC(=O)Nc2ccc(Br)cc2)c(Cl)c1)[N+](=O)[O-] [drawing 12]",
    "TESTED_ON": "Staph. aureus",
    "REPORTED_VALUE": 6.25
  },
  {
    "MOLECULE": "CCCCNC(=O)Oc1ccc(C=C(C)[N+](=O)[O-])cc1 [drawing 5]",
    "TESTED_ON": "Staph. aureus",
    "REPORTED_VALUE": 6.25
  },
  {
    "MOLECULE": "CC(=Cc1cccc(O)c1)[N+](=O)[O-] [drawing 8]",
    "TESTED_ON": "Staph. aureus",
    "REPORTED_VALUE": 3.12
  },
  {
    "MOLECULE": "CC(=Cc1ccc(OC(=O)Nc2ccc(C)cc2)cc1)[N+](=O)[O-] [drawing 3]",
    "TESTED_ON": "Staph. aureus",
    "REPORTED_VALUE": 6.25
  },
  {
    "MOLECULE": "O=[N+]([O-])C=Cc1cc(Cl)ccc1O [drawing 11]",
    "TESTED_ON": "Staph. aureus",
    "REPORTED_VALUE": 3.12
  }
]

Please give MIC for each item listed below.
1. CC(=Cc1ccc(O)c(Cl)c1)[N+](=O)[O-] [drawing 10]
2. CC(=Cc1ccc(OC(=O)Nc2ccccc2)cc1)[N+](=O)[O-] [drawing 7]
3. CC(=Cc1ccc(OC(=O)Nc2ccc(Br)cc2)cc1)[N+](=O)[O-] [drawing 4]

Response line:
3.12
6.25
6.25

Hi there! I need MIC for each item below, if you can.
1. CC(=Cc1ccc(Oc2ncc([N+](=O)[O-])s2)cc1)[N+](=O)[O-] [drawing 9]
2. CC(=Cc1ccc(OC(=O)NC2CCCCC2)cc1)[N+](=O)[O-] [drawing 6]

Response line:
1: 1.56; 2: 3.12
